# test_details: Pharmacokinetics analysis, plasma (LC-MS/MS)
# Assay type: in vivo, mouse
# applied_conditions: male, C57BL/6J, mouse, plasma; 5 mg/kg IP; as read by referee #2
recorded_metric: half-life

Can you share its half-life? I mean this compound: O=C(O)c1ccc(N2C(=O)C(=Cc3ccccc3)SC2=S)cc1 (stereo in doubt)
~1 h

====

# test_details: Pharmacokinetics analysis, plasma (LC-MS/MS)
# Format: in vivo, mouse
# applied_conditions: male, C57BL/6J, mouse, plasma, intraperitoneal, 5 mg/kg, 5 mg/kg (IP), 2 h, n = 3; read-out: Plasma Conc., Mean
recorded_metric: concentration at 2 h (ng/mL)
Record the value in ng/mL, omitting the unit from your answer.

Can you share its concentration at 2 h? I mean this compound: O=C(O)c1ccc(N2C(=O)C(=Cc3ccccc3)SC2=S)cc1 (stereo in doubt) [BML-260]
5.03

====

# test_details: Pharmacokinetics analysis, TA muscle (LC-MS/MS)
# Type: in vivo, mouse
# applied_conditions: male, C57BL/6J, mouse, tibialis anterior (TA) muscle, intraperitoneal, 5 mg/kg, 5 mg/kg (IP), 1 h, TA muscle, n = 3; read-out: Muscle Conc., Mean
recorded_metric: concentration at 1 h (ng/g)
Record the value in ng/g, omitting the unit from your answer.

Can you share its concentration at 1 h? I mean this compound: O=C(O)c1ccc(N2C(=O)C(=Cc3ccccc3)SC2=S)cc1 (stereo in doubt)
350

====

# test_details: Pharmacokinetics analysis, TA muscle (LC-MS/MS)
# Format: in vivo, mouse
# applied_conditions: male, C57BL/6J, mouse, tibialis anterior (TA) muscle, intraperitoneal, 5 mg/kg, 5 mg/kg (IP), 1.5 h, TA muscle, n = 3; read-out: Muscle Conc., Mean
recorded_metric: concentration at 1.5 h (ng/g)
Record the value in ng/g, omitting the unit from your answer.

Can you share its concentration at 1.5 h? I mean this compound: O=C(O)c1ccc(N2C(=O)C(=Cc3ccccc3)SC2=S)cc1 (stereo in doubt) [BML-260]
214

====

# test_details: Pharmacokinetics analysis, TA muscle (LC-MS/MS)
# Type: in vivo, mouse
# applied_conditions: male, C57BL/6J, mouse, tibialis anterior (TA) muscle, intraperitoneal, 5 mg/kg, 5 mg/kg (IP), 1 h, TA muscle, dilution factor 4, individual animals; read-out: Muscle Conc.
# Method: Assessment of BML-260 pharmacokinetics (PK) was carried out by the company Chaon, Yongin-si, Republic of Korea. BML-260 was administered intraperitoneally at a dose of 5 mg/kg in an injection volume of 10 mL/kg. […] BML-260 levels in plasma and tissue samples were analyzed with liquid chromatography-tandem mass spectrometry (LC-MS/MS) using an Agilent 1200 HPLC system coupled with an AB Sciex 4000 QTrap MS/MS (Agilent Technologies, CA, USA). […]
recorded_metric: concentration at 1 h (ng/g)
Record the value in ng/g, omitting the unit from your answer.

Can you share its concentration at 1 h? I mean this compound: O=C(O)c1ccc(N2C(=O)C(=Cc3ccccc3)SC2=S)cc1 (stereo in doubt) [BML-260]
347

====

# test_details: Pharmacokinetics analysis, TA muscle (LC-MS/MS)
# Format: in vivo, mouse
# applied_conditions: male, C57BL/6J, mouse, tibialis anterior (TA) muscle, intraperitoneal, 5 mg/kg, 5 mg/kg (IP), 0.5 h, TA muscle, dilution factor 4, individual animals; read-out: Muscle Conc.
recorded_metric: concentration at 0.5 h (ng/g)
Record the value in ng/g, omitting the unit from your answer.

Can you share its concentration at 0.5 h? I mean this molecule: O=C(O)c1ccc(N2C(=O)C(=Cc3ccccc3)SC2=S)cc1 (stereo in doubt) [BML-260]
338
